Measured Euclidean distance accompanies every entry in the list below.
# Tested on: FB
# experimental.details: Euclidean distance of Cell Painting phenotypic profile (signed KS, 77 features) to DMSO centroid (dimensionless distance); 5 or 10 uM (library dependent); higher = stronger phenotypic change vs DMSO (phenoactivity)
# applied.conditions: 48 h

{"columns": ["compound", "measured.on", "Euclidean distance"],
 "data": [
  ["COc1nc(C)nc(Cl)c1NC1=NCCN1", "FB", 0.879],
  ["Cc1cc(=O)n(-c2ccccc2)n1C [Antipyrine]", "FB", 1.42],
  ["C=C[C@]1(C)C[C@@H](OC(=O)CS[C@@H]2C[C@H]3CC[C@@H](C2)N3C)[C@]2(C)[C@H](C)CC[C@]3(CCC(=O)[C@H]32)[C@@H](C)[C@@H]1O", "FB", 1.51],
  ["COc1cc2c(cc1-c1c(C)noc1C)ncc1[nH]c(=O)n([C@H](C)c3ccccn3)c12", "FB", 3.75]
]}
